target: Adenosine receptor A1 (Rattus norvegicus, UniProt P25099)
Sequence (P25099 whole entry): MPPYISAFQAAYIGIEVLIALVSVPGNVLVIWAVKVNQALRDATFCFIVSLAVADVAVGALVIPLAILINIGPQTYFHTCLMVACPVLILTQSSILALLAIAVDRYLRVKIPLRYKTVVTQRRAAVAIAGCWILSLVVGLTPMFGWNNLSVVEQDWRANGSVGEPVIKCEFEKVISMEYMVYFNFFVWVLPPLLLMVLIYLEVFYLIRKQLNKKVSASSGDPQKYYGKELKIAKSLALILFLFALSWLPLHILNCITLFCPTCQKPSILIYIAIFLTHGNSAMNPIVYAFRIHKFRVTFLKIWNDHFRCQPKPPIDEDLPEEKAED
pKi: −log10 of the molar value.

- compound: "C[C@H](Cc1ccccc1)Nc1ncnc2c1ncn2C1CC(O)C(CO)O1 (stereo partly specified)"
  pKi: 4.84
- compound: "OC[C@H]1O[C@@H](n2cnc3c(NC4CCCC4)ncnc32)C[C@@H]1O"
  pKi: 5.12
- compound: "OC[C@@H]1C[C@@H](O)[C@H](n2cnc3c(NC4CCCC4)ncnc32)O1"
  pKi: 6.33
- compound: "C[C@H](Cc1ccccc1)Nc1ncnc2c1ncn2C1O[C@H](C)[C@@H](O)[C@H]1O (stereo partly specified)"
  pKi: 5.97
- compound: "C[C@H]1OC(n2cnc3c(NC4CCCC4)ncnc32)[C@H](O)[C@@H]1O (stereo partly specified)"
  pKi: 6.35
- compound: "C[C@H](Cc1ccccc1)Nc1ncnc2c1ncn2[C@@H]1O[C@H](CO)C[C@H]1O"
  pKi: 6.00
- compound: "C[C@H]1O[C@@H](n2cnc3c(N)ncnc32)[C@H](O)[C@@H]1O"
  pKi: 4.92
- compound: "Cn1cnc2c(N)ncnc21"
  pKi: 4.83
- compound: "OC[C@H]1O[C@@H](n2cnc3c(NC4CCCCC4)ncnc32)C[C@@H]1O"
  pKi: 4.64
- compound: "C[C@@H](Cc1ccccc1)Nc1ncnc2c1ncn2[C@@H]1O[C@H](CO)C[C@H]1O"
  pKi: 4.76
- compound: "OC[C@@H]1C[C@@H](O)[C@H](n2cnc3c(NC4CCCCC4)ncnc32)O1"
  pKi: 5.90

* * *

biological target: Adenosine receptor A2a (Rattus norvegicus); assay: Binding affinity against Adenosine A2A receptor by using [3H]CGS-21680 as radioligand
Sequence (P30543 whole entry): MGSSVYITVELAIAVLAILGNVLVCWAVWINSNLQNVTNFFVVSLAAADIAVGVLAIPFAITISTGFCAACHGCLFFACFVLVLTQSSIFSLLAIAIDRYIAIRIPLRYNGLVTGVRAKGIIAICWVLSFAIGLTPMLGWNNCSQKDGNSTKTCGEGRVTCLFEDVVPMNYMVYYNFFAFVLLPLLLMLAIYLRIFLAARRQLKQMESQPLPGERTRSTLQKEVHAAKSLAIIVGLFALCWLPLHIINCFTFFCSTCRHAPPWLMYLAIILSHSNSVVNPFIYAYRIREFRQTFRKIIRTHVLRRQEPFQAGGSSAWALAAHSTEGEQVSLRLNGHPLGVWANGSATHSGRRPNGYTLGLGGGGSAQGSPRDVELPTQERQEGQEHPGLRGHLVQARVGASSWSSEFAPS

- compound: "C[C@@H](Cc1ccccc1)Nc1ncnc2c1ncn2C1CC(O)C(CO)O1 (some centres undefined)"
  subject-of-test: "Adenosine receptor A2a (Rattus norvegicus)"
  % radioligand bound: "91%"
- compound: "OC[C@H]1O[C@@H](n2cnc3c(NC4CCCCC4)ncnc32)C[C@@H]1O"
  subject-of-test: "Adenosine receptor A2a (Rattus norvegicus)"
  % radioligand bound: "90%"
- compound: "OC[C@H]1O[C@@H](n2cnc3c(NC4CCCC4)ncnc32)C[C@@H]1O"
  subject-of-test: "Adenosine receptor A2a (Rattus norvegicus)"
  % radioligand bound: "88%"
- compound: "C[C@H](Cc1ccccc1)Nc1ncnc2c1ncn2C1CC(O)C(CO)O1 (some centres undefined)"
  subject-of-test: "Adenosine receptor A2a (Rattus norvegicus)"
  % radioligand bound: "86%"
